The reported measurements were obtained from patent US20150064204A1.

Listing of recorded IFNg Secretion (Fold over CD3) by entry.
- Assayed target: T1, human GITR (Glucocorticoid-induced TNFR-related gene, TNFRSF18) (human, UniProt Q9Y5U5 26-241)
- T1 sequence: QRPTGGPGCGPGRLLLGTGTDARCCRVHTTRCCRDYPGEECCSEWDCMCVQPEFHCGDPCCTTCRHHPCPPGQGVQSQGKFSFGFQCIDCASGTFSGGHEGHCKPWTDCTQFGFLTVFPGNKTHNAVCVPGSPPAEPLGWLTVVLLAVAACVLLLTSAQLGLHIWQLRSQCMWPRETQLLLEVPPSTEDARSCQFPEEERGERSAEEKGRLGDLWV
- Assay remarks: cell-based or functional assay
Write it as a number; the unit fold over CD3 goes unstated.

Completed entries (count: 2):
49D9v1 (antibody, human IgG1, kappa, V domains shown, tied to 49D9v1 by Ab22 / SS-12562; also called Ab22; SS-12562) VH: QMQLVESGGGVVQPGGSLRLSCAASGFTFSSYGMHWVRQAPGKGLEWVAVIWYAGSNKYYADSVKGRFTISRDNSKNTLYLQMNSLRAEDTAVYYCARGGRLGFYYYYGMDVWGQGTTVTVSS VL: DIQMTQSPSSLSASVGDRVTITCRASQGIRNDLGWYQQKPGKAPKRLIYAASSLQSGVPSRFSGSGSGTEFTLTISSLQPEDFATYYCLQLNSYPWTFGQGTKVEIKR = 1.3
49E2v1 (antibody, human IgG1, lambda, V domains shown, tied to 49E2v1 by Ab23 / SS-12516; also called Ab23; SS-12516) VH: QVQLVESGGGVVQPGRSLRLSCAASGFTFSSYGMHWVRQAPGKGLEWVAVIWSDGNNKYYEDSVKGRFTISRDSSKNTLFLQMNSLRAEDTAVYYCARDTATPFDYWGQGTLVTVSS VL: QSALTQPASVSGSPGQSITISCTGTSSDVGIYNLVSWYQQHPGKAPKLMIHEVSKRPSGVSNRFSGSKSGNTASLTISGLQAEDEADYYCASYAGISTWVFGGGTKLTVLG = 1.9

Which IFNg Secretion (Fold over CD3) value is on record for 48H7 (antibody, human IgG1, kappa, V domains shown, Fully human parental antibody; also called Ab13; SS-12423) VH: QVQLVESGGGVVQPGRSLRLSCAASGFTFSSYGMYWVRQAPGKGLEWVAVIWYEGSNKYYADSVKGRFTISRDNSKNTLYLQMNSLRAEDTAVYFCARGGELGRDYYSGMDVWGQGTTVTVSS VL: DIQMTQSPSSLSASVGDRVTITCRASQVIRNDLGWYQQKPGKAPKRLIYAASSLQSGVPSRFSGSGSGTEFTLTISSLQPEDFATYYCLQHNSYPITFGGGTKVEIKR ?
1.2

Which IFNg Secretion (Fold over CD3) value is on record for 34G4 (antibody, human IgG1, kappa, V domains shown, Fully human parental antibody; also called Ab4; SS-12415) VH: QVQLVESGGGVVQPGRSLRLSCAASGFTFSSYGMHWVRQAPGKGLEWVAVIWYEGSNKYYADSVKGRFTISRDNSKNTLYLQMNSLRAEDTAVYYCARGGQLGYYYYYGMDVWGQGTTVTVSS VL: DIQMTQSPSSLSASVGDRVTITCRASQGIRNDLGWYQQKPGKAPKRLIYDASSLQSGVPSRFSGSGSGTDFTLTISSLQPEDFATYYCLQLNSYPWTFGQGTKVEIKR ?
1.9

Which IFNg Secretion (Fold over CD3) value is on record for 42A11 (antibody, human IgG1, kappa, V domains shown, Fully human parental antibody; also called Ab8; SS-12418) VH: QVQLVESGGGVVQPGRSLRLSCAASGFTFSSYGMHWVRQAPGKGLEWVAVIWYEGSNKYYADSVKGRFTISRDNSKNTLYLQMNSLRAEDTAVYYCARGGQLGYYYYSGMDVWGQGTTVTVSS VL: DIQMTQSPSSLSASVGDRVTITCRASQGIRNDLGWYQQKPGKAPKRLIYDASSLQSGVPSRFSGSGSGTDFTLTISSLQPEEFATYYCLQHNNYPWTFGQGTKVEIKR ?
1.9

Which IFNg Secretion (Fold over CD3) value is on record for 5H7 (antibody, human IgG1, kappa, V domains shown, Fully human parental antibody; also called Ab17; SS-10943) VH: QVQLQESGPGLVKPSQTLSLTCTVSGGSISSGGYFWSWIRQHPGKGLEWIGYIYYSGTTYYNPSLKSRVTISIDTSKNHFSLKLSSVTAADTAVYYCARDLFYYDSSGPRGFDPWGQGTLVTVSS VL: EIVLTQSPGTLSLSPGERATLSCRASQTVSSNYLAWYQQKPGQAPRLLIYGSSTRATGIPDRFSGSGSGTDFTLTISRLEPEDFAVYYCQQYDSSPWTFGQGTKVEIKR ?
2.9
